assay: Aqueous solubility of solid forms; format: physicochemical; conditions: water, 25 °C
measured_attribute: solubility

Name the recorded solubility of the item CC(=O)O.N=C(N)c1ccc(CNC(=O)c2cnn(Cc3ccccc3)c2)cc1 [Form I] in your answer. ~8300 µg/mL
